# protocolNotes: Quantitative High-Throughput drug screen in 47 multiple myeloma cell lines against the NCATS MIPE library collection: H1112_PLB cell viability assay (AID 1918967; further: nearly all actives have a fitted effect of over 30% in size)
# experimentalContext: H1112 myeloma cells viability, ATP luminescence, 48 h; series mostly up to 45.8 µM
Inconclusive results are not listed. Activity calls are given as the source filed them. The call rests on the fitted dose curve; in most records, active means well fitted cell-killing curve with a large enough effect; inconclusive means small, poorly fitted or top-dose-only effect, or effect the other way; inactive means no such curve, though single readings can be large or run the other way.
Parameter call: string, one of 1 (yes) for active, 0 (no) for inactive

>>> answerlabel("CN1CCN(C(=O)O[C@H]2c3nccnc3C(=O)N2c2ccc(Cl)cn2)CC1")
"0 (no)"
>>> answerlabel("COC[C@@H](NC(C)=O)C(=O)NCc1ccccc1")
"0 (no)"
>>> answerlabel("C[C@@H]1O[C@@H](O[C@H]2C[C@@H](O)[C@]3(CO)[C@H]4[C@H](O)C[C@]5(C)[C@@H](C6=CC(=O)OC6)CC[C@]5(O)[C@@H]4CC[C@]3(O)C2)[C@H](O)[C@H](O)[C@H]1O")
"1 (yes)"
>>> answerlabel("COc1ccc2c(c1OC)CN1CCc3cc4c(cc3C1C2)OCO4 (stereo not given)")
"0 (no)"
>>> answerlabel("O=C1CC[C@@]2(O)[C@H]3Cc4ccc(O)c5c4[C@@]2(CCN3CC2CC2)[C@H]1O5")
"0 (no)"

input: Query: recorded result category for Cn1cc(C2=C(c3cn(C4CCN(Cc5ccccn5)CC4)c4ccccc34)C(=O)NC2=O)c2ccccc21 in this test
output: 1 (yes)

input: Query: recorded result category for Cc1cccc(C)c1NC(=O)CN1CCCC1=O in this test
output: 0 (no)

input: Query: recorded result category for CNC(=O)c1ccc(N2C(=S)N(c3ccc(C#N)c(C(F)(F)F)c3)C(=O)C23CCC3)cc1F in this test
output: 1 (yes)

----------
# System: MCC-13
# protocolNotes: qHTS assay to identify novel small-molecules to repurpose for Merkel cell carcinoma treatment (AID 1296009); further: nearly all actives have a fitted effect of over 60% in size
# experimentalContext: MCC and control cell lines, CellTiter-Glo viability, 72 h; series mostly up to 46 µM
Inconclusive results are not listed. Activity calls are given as the source filed them. Calls come from the whole dose curve; as a rule, active = well fitted inhibition curve with a large enough effect; inconclusive = small, poorly fitted or top-dose-only effect; inactive = flat fitted curve, though single readings scatter.
Parameter call: string, one of active, inactive

Some solved cases for reference:
>>> answerlabel("CCC(C(N)=O)N1CCCC1=O (centres undefined)")
"inactive"
>>> answerlabel("Cc1ccc(S(=O)(=O)N[C@@H](CCCCN)C(=O)CCl)cc1")
"inactive"
>>> answerlabel("CC[N+](CC)(CC)CC")
"inactive"
>>> answerlabel("NP(N)(=O)NC(=O)c1ccc(F)cc1")
"inactive"
>>> answerlabel("COc1ccc(C(CN(C)C)C2(O)CCCCC2)cc1 (centres undefined)")
"inactive"
>>> answerlabel("CC(C)(N)Cc1ccc(Cl)cc1")
"inactive"
>>> answerlabel("CC1=C2C[C@@H]3[C@@H](CC=C4C[C@@H](O)CC[C@@]43C)[C@@H]2CC[C@]12O[C@H]1C[C@H](C)CN[C@H]1[C@H]2C")
"inactive"
>>> answerlabel("CC[N+]1(C)CCCC(OC(=O)C(O)(c2ccccc2)c2ccccc2)C1 (centres undefined)")
"inactive"

input: Query: recorded result category for Cc1ncc(CNC(=O)N(CCCl)N=O)c(N)n1 in this test
output: inactive

input: Query: recorded result category for CC(C)=CCOc1c2occc2cc2ccc(=O)oc12 in this test
output: inactive

input: Query: recorded result category for COc1ccc(Cc2nccc3cc(OC)c(OC)cc23)cc1OC in this test
output: inactive

input: Query: recorded result category for Cn1c(CCCC(=O)O)nc2cc(N(CCCl)CCCl)ccc21 in this test
output: inactive

input: Query: recorded result category for CCC1(C2=NCCN2)Cc2ccccc2O1 (centres undefined) in this test
output: inactive

input: Query: recorded result category for CO[C@]12CC[C@@]3(C[C@@H]1[C@](C)(O)C(C)(C)C)[C@@H]1Cc4ccc(O)c5c4[C@@]3(CCN1CC1CC1)[C@H]2O5 in this test
output: active
